Molecular target: Yer064c (UniProt P40041)
Sequence: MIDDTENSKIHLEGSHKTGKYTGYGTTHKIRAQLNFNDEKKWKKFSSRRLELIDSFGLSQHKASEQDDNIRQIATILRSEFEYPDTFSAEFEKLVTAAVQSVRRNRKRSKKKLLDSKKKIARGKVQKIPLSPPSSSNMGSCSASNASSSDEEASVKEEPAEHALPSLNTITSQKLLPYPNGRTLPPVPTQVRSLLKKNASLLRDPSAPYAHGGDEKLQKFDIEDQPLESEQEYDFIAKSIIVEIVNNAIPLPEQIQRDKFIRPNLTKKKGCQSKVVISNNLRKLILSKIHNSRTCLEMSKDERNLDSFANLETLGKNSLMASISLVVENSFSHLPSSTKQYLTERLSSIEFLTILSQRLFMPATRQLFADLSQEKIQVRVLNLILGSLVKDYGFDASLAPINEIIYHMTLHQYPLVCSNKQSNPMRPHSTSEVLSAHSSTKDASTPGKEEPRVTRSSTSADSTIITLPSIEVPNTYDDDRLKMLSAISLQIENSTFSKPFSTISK
Assay: PBM E-score (8-mer binding enrichment) (E-score (-0.5 to 0.5)); higher = stronger / more preferred TF binding
Details: protein concentration: 200 nM; construct: GST-full length
Whole data set: some 33,000 sequences, median “E-score (-0.5 to 0.5)” near -0.036, cut for the highest 2% near 0.37. Shown is part of a subset that was picked to be rich in the highest values.
Each record here notes measured PBM E-score.

primary.sequence	tgt	quantity.kind	reading
CACGCAAG	Yer064c (UniProt P40041)	PBM E-score	-0.11
GTGAATCA	Yer064c (UniProt P40041)	PBM E-score	0.48

Could you share which PBM E-score value was measured for CCTGGACA ?
-0.127

Endpoint output: PBM E-score of ATGAATCA . Value?
0.48

Bench note: what PBM E-score did CTGAATCC show?
0.235

Any idea what PBM E-score was measured for AGTGACTG ?
0.403

# input sequence: GGTAGGGA ; wanted: its PBM E-score
-0.0117

Requested read-out: PBM E-score. Entry: GGTGACCA
0.0718

Need PBM E-score, item GCCTAGGC
-0.179

I would be grateful if you could share the reported PBM E-score for GGTGACGA .
-0.0961

All values here come from the supplement of paper PMC3334620.
